Tested on: passive cutaneous anaphylaxis reaction (PCA reaction)
assay-protocol: Passive cutaneous anaphylaxis reaction (PCA reaction), intravenous, rats
Assay type: in vivo, Male Lister-Hooded rats
assay-setup: Rattus norvegicus, iv, simultaneous with antigen (ovalbumin) challenge; per kilogram of body weight; read-out: INHIBITION OF PCA REACTION IC50, Compound of Example No.
Threshold-based label: ED50 under 10 µmol/kg gives t, ED50 not under 10 µmol/kg gives f.

CC1(C)CCc2oc3cccc(NC(=O)C(=O)O)c3c(=O)c2C1: t
Cc1oc2cccc(NC(=O)C(=O)O)c2c(=O)c1C [IV, Sodium 2,3-dimethylchromone-5-oxamate]: t
O=C(O)C(=O)Nc1cccc2oc3c(c(=O)c12)CCCC3 [Example I, Sodium 2,3-cyclohexenochromone-5-oxamate]: f
CC1(C)CCC2=C(C1)C(=O)c1c(NC(=O)C(=O)O)cccc1S2(=O)=O: f

Item CCC1CCc2oc3cccc(NC(=O)C(=O)O)c3c(=O)c2C1 (stereo not drawn) : ED50 beneath 10 µmol/kg, strictly?
f
